# experimentalSystem: BACE1 enzyme (Homo sapiens)
# Sequence (P56817 46-501): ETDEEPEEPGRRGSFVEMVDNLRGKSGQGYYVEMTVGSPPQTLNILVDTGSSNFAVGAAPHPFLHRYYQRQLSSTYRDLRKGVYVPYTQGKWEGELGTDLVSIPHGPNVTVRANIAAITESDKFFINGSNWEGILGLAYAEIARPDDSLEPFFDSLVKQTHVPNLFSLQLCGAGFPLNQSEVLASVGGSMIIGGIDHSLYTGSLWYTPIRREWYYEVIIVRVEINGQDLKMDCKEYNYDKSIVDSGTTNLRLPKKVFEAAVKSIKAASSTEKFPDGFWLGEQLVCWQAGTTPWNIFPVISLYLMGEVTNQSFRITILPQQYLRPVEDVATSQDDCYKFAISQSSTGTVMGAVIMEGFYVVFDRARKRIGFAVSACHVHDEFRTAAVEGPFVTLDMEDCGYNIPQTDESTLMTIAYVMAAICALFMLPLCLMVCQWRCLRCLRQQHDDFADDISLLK
# methodSummary: BACE1 enzyme inhibition, Ki from kinetic data under tight-binding conditions
# Format: biochemical
# assayConditions: Ki (nM) BACE1, Table 2

# molSmiles, displayUnit, Ki
data = [
    ("CCC[C@H](O)[C@H](NC[C@@H](O)[C@H](Cc1ccccc1)NC(=O)c1cccc(C(=O)N(C)[C@H](C)c2ccccc2)c1)c1cccc(OC)c1", "nM", 38600),
    ("COc1cccc([C@@H](NC[C@@H](O)[C@H](Cc2ccccc2)NC(=O)c2cc(C)cc(C(=O)N(C)[C@H](C)c3ccccc3)c2)[C@H](C)O)c1", "nM", 16200),
    ("CCC[C@H](O)[C@H](NC[C@@H](O)[C@H](Cc1ccccc1)NC(=O)c1cc(C)cc(C(=O)N(C)[C@H](C)c2ccccc2)c1)c1ccccc1", "nM", 18100),
]
